# test_target: T1, human 5T4ECDHis (mature protein of SEQ ID NO: 99) (human, UniProt Q13641 32-355)
# T1 construct: ECD of human 5T4 (aa 1-355 of Uniprot Q13641) with C-terminal His tag; residues 1-31 are the signal peptide; also called ECD of human 5T4 with a C-terminal His tag
# T1 sequence: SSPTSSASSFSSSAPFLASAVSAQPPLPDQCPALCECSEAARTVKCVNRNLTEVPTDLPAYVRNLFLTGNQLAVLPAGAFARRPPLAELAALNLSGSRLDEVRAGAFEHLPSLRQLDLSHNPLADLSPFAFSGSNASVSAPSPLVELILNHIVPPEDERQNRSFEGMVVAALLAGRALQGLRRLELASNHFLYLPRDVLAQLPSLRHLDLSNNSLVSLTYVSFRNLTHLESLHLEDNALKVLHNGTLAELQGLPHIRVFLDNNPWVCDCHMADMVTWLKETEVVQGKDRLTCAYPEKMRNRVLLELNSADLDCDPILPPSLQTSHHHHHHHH
# experiment_summary: BLI cross-block; competitor (immobilised): IgG1-5T4-226-FEAR
corrected association response overview
Express the result in nm but write the number alone.

| binder | units_label | reported_result |
| --- | --- | --- |
| IgG1-5T4-127-FEAR (antibody, V domains shown, Monospecific, bivalent human IgG1 kappa with L234F, L235E, D265A, K409R (FEAR)) VH: EVQLLESRGGLVQPGGSLRLSCAASGFTFSSYAMSWVRQAPGKGLEWVSTISGSGGSTYYADSVKGRFTISRDNSKKTLYLQMNSLRAEDTAVYYCAKDWGSGSYPAEYFQHWGQGTLVTVSS VL: EIVLTQSPATLSLSPGERATLSCRASQSVSSYLAWYQQKPGQAPRLLIYDASNRATGIPARFSGSGSGTDFTLTISSLEPEDFAVYYCQQRSNWLMYTFGQGTKLEIK | nm | 1.51 |

Field: next binder
Fill in: corrected association response of IgG1-5T4-A1-F405L (antibody, V domains shown, Variable region of A1 of WO2007106744 in a human IgG1 backbone with F405L; also called surrogate A1 antibody) VH: QIQLVQSGPELKKPGETVKISCKASGYTFTNFGMNWVKQGPGEGLKWMGWINTNTGEPRYAEEFKGRFAFSLETTASTAYLQINNLKNEDTATYFCARDWDGAYFFDYWGQGTTLTVSS VL: SIVMTQTPKFLLVSAGDRVTITCKASQSVSNDVAWYQQKPGQSPKLLINFATNRYTGVPNRFTGSGYGTDFTFTISTVQAEDLALYFCQQDYSSPWTFGGGTKLEIK is ___
1.56

These entries and their values trace back to patent US20230257479A1.
